biological target: Factor X, P00742
Sequence (P00742 whole entry, looked up): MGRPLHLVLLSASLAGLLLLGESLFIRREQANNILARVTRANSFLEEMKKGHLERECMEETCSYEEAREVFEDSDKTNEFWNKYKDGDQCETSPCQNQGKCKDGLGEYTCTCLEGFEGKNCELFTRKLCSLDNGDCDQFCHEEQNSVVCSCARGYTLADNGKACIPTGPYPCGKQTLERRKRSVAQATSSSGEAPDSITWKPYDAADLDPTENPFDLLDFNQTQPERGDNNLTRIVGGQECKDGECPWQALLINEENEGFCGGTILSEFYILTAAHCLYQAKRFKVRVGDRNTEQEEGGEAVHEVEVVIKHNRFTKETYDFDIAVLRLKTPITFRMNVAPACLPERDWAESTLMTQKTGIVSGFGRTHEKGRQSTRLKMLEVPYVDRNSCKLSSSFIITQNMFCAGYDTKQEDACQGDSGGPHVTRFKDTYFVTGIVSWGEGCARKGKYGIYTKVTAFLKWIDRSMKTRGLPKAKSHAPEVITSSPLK
RECORDED METRIC: KM (µM)
The reply should contain only the number, in µM.

protein="FIXa-A103N/N105S/R318Y/R338E/R403E/E410N (protein) chain 1: YNSGKLEEFVQGNLERECMEEKCSFEEAREVFENTERTTEFWKQYVDGDQCESNPCLNGGSCKDDINSYECWCPFGFEGKNCELDVTCNIKNGRCEQFCKNSNDSKVVCSCTEGYRLAENQKSCEPAVPFPCGRVSVSQTSKLTR chain 2: VVGGEDAKPGQFPWQVVLNGKVDAFCGGSIVNEKWIVTAAHCVETGVKITVVAGEHNIEETEHTEQKRNVIRIIPHHNYNAAINKYNHDIALLELDEPLVLNSYVTPICIADKEYTNIFLKFGSGYVSGWGRVFHKGYSALVLQYLRVPLVDRATCLESTKFTIYNNMFCAGFHEGGRDSCQGDSGGPHVTEVEGTSFLTGIISWGEECAMKGKYGIYTKVSEYVNWIKNKTKLT" recorded_metric=KM unit_name=µM observed_result=0.0447

Query protein follows.
The reported value for FIXa-K228N/K247N/N249S/R318Y/T343R/R403E/E410N (protein) chain 1: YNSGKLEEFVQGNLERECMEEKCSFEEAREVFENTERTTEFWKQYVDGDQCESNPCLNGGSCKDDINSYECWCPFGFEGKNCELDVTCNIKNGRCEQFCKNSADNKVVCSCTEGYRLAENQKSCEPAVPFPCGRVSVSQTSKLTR chain 2: VVGGEDAKPGQFPWQVVLNGKVDAFCGGSIVNEKWIVTAAHCVETGVNITVVAGEHNIEETEHTEQNRSVIRIIPHHNYNAAINKYNHDIALLELDEPLVLNSYVTPICIADKEYTNIFLKFGSGYVSGWGRVFHKGYSALVLQYLRVPLVDRATCLRSTKFRIYNNMFCAGFHEGGRDSCQGDSGGPHVTEVEGTSFLTGIISWGEECAMKGKYGIYTKVSEYVNWIKNKTKLT in terms of KM is 0.125
